EXPERIMENT SUMMARY: folding stability dG unfold (combined trypsin and chymotrypsin); higher = more stable
Task for the reader: assign each of the following sequences its reported folding stability dG unfold.
Answers are plain numbers, in kcal/mol.

Worked cases, folding stability dG unfold given:
SAGGSAGGSAFKLPPGKKITIFFDPENGNFAIMVPDGNERRVPMPAEELIKLGFPVEIIGPWSAGGSAGGSA [r18_125_TrROS]	0.517
SAGGSAGGSAGGGNSLSSVRVVPVTLRTSEPLEQDGDPRPREFTETTVVRITETVPPGLSAGGSAGGSAGGS [r10_118_JUSTAS]	0.356
SAGGSAGGSPNQDFKVKVKIKEFNPGNGHIRIDVEVEGDNPQVQDFAKGIAEGFGFPVEVEPISAGGSAGGS [r20_157_TrROS]	-0.0925

Report folding stability dG unfold for each item below.
1. SAGGSAGGSAILRIKLEHPKSGKPMTWVIPPEMNIEQIADMLMEQHPNAEIKDIEWVPPNQISAGGSAGGSA [r18_242_TrROS]
2. SAGGMTVTLRLTDPAGEEYTVTVTKTEGKSTATVYGPGGELVETRDFSSAEEAIAYLRAQGYTVEVIESAGG [r13_315_JUSTAS]
3. SAGGSAGGLKPGEEWLILFRIDIEIEPMPPNMSPDMAKRFPNMYHIEVKIDILIIPAEDLKELFSAGGSAGG [r6_831_TrROS]

1. -0.0546
2. 5.34
3. 3.51
